# TEST_PROTOCOL: qHTS assay to identify small molecule agonists of the constitutive androstane receptor (CAR) signaling pathway - cell viability counter screen (AID 1224836); note: nearly all actives have a fitted effect of over 45% in size
# CONDITIONS_USED: HepG2-CYP2B6-hCAR viability, CellTiter-Fluor, 23 h, PK11195 added to every well; series mostly up to 92.4 µM
Records with an inconclusive call do not appear. The source made the active and inactive calls. Calls come from the whole dose curve; as a rule, active = well fitted cell-killing curve with a large enough effect in the repeat runs; inconclusive = weak or mixed curves, or effect the other way; inactive = flat fitted curve, though single readings scatter.

# MOLECULE, viability change, negative = cytotoxic
rows = [
    ("Cc1ccc(C(C)C)cc1O", "inactive"),
    ("CN1C(=O)CC(c2ccccc2)C1=O (stereo not drawn)", "inactive"),
    ("CC1=C2[C@H](/C=C(\\C)C(=O)O)CC[C@@H](C)[C@H]2CC1", "inactive"),
    ("CCCCC(CC)COC(=O)COc1cc(Cl)c(Cl)cc1Cl (stereo not drawn)", "inactive"),
    ("OCC(CBr)(CBr)CBr", "inactive"),
    ("CCCCC1CCC(=O)O1 (stereo not drawn)", "inactive"),
    ("CCCOCCC", "inactive"),
    ("C=CCCCCCCCCO", "inactive"),
    ("CCOC(=O)NCCC[Si](OCC)(OCC)OCC", "inactive"),
    ("CCCCCCCCCCCCCCCCOP(=O)([O-])OCC[N+](C)(C)C", "inactive"),
    ("CCCCCCCOC(=O)CCC", "inactive"),
    ("CCCCCCOc1ccc(N)cc1", "inactive"),
    ("CC(C)C(=O)OCC(C)(C)C(O)C(C)C (stereo not drawn)", "inactive"),
    ("COc1cc(N)c(Cl)cc1C(=O)NC1CCN(Cc2ccccc2)CC1", "inactive"),
    ("CCCS(=O)c1ccc2nc(NC(=O)OC)[nH]c2c1 (stereo not drawn)", "inactive"),
    ("CCCCCOc1ccc(C2SC(=O)NC2=O)cc1OCC (stereo not drawn)", "inactive"),
    ("O=C(O)[C@@H](O)[C@H](O)[C@H](O)[C@@H](O)C(=O)O", "inactive"),
    ("O=C1Nc2ccc([N+](=O)[O-])cc2C1=O", "inactive"),
    ("C=CCc1cc(OC)c(O)c(C(=O)NCCO)c1", "inactive"),
    ("CN1CCN(C2=Nc3cc(F)ccc3Cc3ccccc32)CC1", "inactive"),
    ("CCC(=O)c1ccc2c(c1)N(CCCN(C)C)c1ccccc1S2", "inactive"),
    ("C/C(=N\\O)[C@@H](C)NCC(C)(C)CN[C@H](C)/C(C)=N/O", "inactive"),
    ("CCCCNc1ccc(C(=O)OCCN(CC)CC)cc1", "inactive"),
]
